biological target: human HER3 endogenously expressed on human cancer cells (SK-Br-3, BT-474, MCF7) (human, UniProt P21860 20-1342); assay: cell-based or functional assay
Please respond with reported SK-Br-3 proliferation % inhibition for every item in the list.
Give bare numbers, in %.

Consider the following illustrative entries.
MOR12921 (antibody, human IgG1, lambda, V domains shown, Tested as IgG) VH: QVQLVQSGAEVKKPGASVKVSCKASGYTFTGYYMHWVRQAPGQGLEWMGDIDPHSGNAVYAQKFQGRVTMTRDTSISTAYMELSRLRSEDTAVYYCARGSFYTRDSYFDVWGQGTLVTVSS VL: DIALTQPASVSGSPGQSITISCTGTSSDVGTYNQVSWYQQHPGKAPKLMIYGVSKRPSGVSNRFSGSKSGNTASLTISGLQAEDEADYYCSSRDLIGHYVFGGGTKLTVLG ... 42
MOR12514 (antibody, human IgG1, lambda, V domains shown, Tested as IgG) VH: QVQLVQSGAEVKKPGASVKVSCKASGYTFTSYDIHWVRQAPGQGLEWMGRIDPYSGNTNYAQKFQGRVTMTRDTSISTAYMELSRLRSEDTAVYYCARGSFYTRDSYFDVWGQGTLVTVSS VL: DIALTQPASVSGSPGQSITISCTGTSSDVGTYNQVSWYQQHPGKAPKLMIYGVSKRPSGVSNRFSGSKSGNTASLTISGLQAEDEADYYCQVRDMSLFDVFGGGTKLTVLG ... 36
MOR12603 (antibody, human IgG1, kappa, V domains shown, Tested as IgG) VH: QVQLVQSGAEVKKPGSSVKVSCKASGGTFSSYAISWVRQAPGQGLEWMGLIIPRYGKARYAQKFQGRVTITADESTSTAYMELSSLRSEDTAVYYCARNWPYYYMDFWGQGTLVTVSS VL: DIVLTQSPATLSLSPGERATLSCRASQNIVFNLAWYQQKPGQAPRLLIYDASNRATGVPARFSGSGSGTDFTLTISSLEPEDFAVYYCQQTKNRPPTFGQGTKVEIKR ... 36
MOR14538 (antibody, human IgG1, lambda, V domains shown, Tested as IgG) VH: QVQLVQSGAEVKKPGASVKVSCKASGYTFTSYDIHWVRQAPGQGLEWMGRIDPYSGNTNYAQKFQGRVTMTRDTSISTAYMELSRLRSDDTAVYYCARGSFYTRDSYFDVWGQGTLVTVSS VL: QSALTQPASVSGSPGQSITISCTGTSSDVGTYNQVSWYQQHPGKAPKLMIYGVSKRPSGVSNRFSGSKSGNTASLTISGLQAEDEADYYCASADHSYHTVFGGGTKLTVLG ... 53
MOR14537 (antibody, human IgG1, lambda, V domains shown, Tested as IgG) VH: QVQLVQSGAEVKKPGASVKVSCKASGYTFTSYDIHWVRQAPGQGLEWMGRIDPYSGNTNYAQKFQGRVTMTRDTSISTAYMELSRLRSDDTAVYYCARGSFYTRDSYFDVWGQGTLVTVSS VL: QSALTQPASVSGSPGQSITISCTGTSSDVGTYNQVSWYQQHPGKAPKLMIYGVSKRPSGVSNRFSGSKSGNTASLTISGLQAEDEADYYCSSATQKPDVTVFGGGTKLTVLG ... 48

Dear colleague, could you please provide SK-Br-3 proliferation % inhibition for the binders listed below?
1. MOR12605 (antibody, human IgG1, kappa, V domains shown, Tested as IgG) VH: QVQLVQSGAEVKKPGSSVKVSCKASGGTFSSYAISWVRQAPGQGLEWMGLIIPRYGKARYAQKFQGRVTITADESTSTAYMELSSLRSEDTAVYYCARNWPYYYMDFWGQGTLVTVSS VL: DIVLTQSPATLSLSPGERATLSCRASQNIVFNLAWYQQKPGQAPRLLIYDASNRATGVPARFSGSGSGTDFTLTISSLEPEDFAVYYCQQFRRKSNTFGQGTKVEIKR
2. MOR12922 (antibody, human IgG1, lambda, V domains shown) VH: QVQLVQSGAEVKKPGASVKVSCKASGYTFTGYYMHWVRQAPGQGLEWMGVIDPYSGWTEYAQKFQGRVTMTRDTSISTAYMELSRLRSEDTAVYYCARGSFYTRDSYFDVWGQGTLVTVSS VL: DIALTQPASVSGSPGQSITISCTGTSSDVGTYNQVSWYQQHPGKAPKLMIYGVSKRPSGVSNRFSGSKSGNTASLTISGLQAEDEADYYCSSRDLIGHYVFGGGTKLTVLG
3. MOR12516 (antibody, human IgG1, lambda, V domains shown, Tested as IgG) VH: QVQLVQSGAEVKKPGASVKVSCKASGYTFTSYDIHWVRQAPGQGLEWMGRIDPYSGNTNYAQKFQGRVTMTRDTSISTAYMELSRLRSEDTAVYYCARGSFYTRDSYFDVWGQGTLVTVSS VL: DIALTQPASVSGSPGQSITISCTGTSSDVGTYNQVSWYQQHPGKAPKLMIYGVSKRPSGVSNRFSGSKSGNTASLTISGLQAEDEADYYCQSRDTYRPVKVFGGGTKLTVLG
4. MOR13655 (antibody, human IgG1, lambda, V domains shown, Tested as IgG) VH: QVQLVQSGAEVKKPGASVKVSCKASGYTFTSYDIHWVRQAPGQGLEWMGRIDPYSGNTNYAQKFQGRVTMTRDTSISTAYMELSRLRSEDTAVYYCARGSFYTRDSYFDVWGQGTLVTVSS VL: DIALTQPASVSGSPGQSITISCTGTSSDVGTYNQVSWYQQHPGKAPKLMIYGVSKRPSGVSNRFSGSKSGNTASLTISGLQAEDEADYYCSSATQKPDVTVFGGGTKLTVLG
5. MOR12604 (antibody, V domains shown, Tested as IgG) VH: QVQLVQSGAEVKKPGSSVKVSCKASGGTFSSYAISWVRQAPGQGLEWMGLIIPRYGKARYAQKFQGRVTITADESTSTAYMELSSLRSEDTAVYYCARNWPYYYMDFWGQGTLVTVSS VL: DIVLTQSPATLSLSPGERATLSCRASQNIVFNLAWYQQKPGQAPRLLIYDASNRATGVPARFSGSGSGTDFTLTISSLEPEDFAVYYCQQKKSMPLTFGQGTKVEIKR

1. 29
2. 36
3. 34
4. 39
5. 42
